Data origin: patent US20070254319A1

# System: ABCG2 (BCRP)
# assay-info: Hoechst 33342 / R123 efflux (SP phenotype) in freshly isolated therapy naive non-small cell lung tumor cells
# Assay type: cell-based
# conditions: human, probe Hoechst 33342; inhibitor 10 microM; coincubation with Hoechst 33342 8 microM and R123 0.13 microM, 90 minutes at 37° C.
# Protocol: Antibody stained suspended tumor cells were incubated simultaneously with the ABCG2/ABCB1 substrate Hoechst 33342 (8 microM) plus the ABCB1 substrate rhodamine 123 (R123, 0.13 microM) for 90 minutes at 37° C. Propidium iodide (PI, 10 microg/mL) was added immediately before sample acquisition. All events were gated on PI excluding (live), non-hematopoietic singlets. Five million events were collected. […]
value-kind: inhibition at 90 min, 10 microM (%)
Express your answer in %, writing the number without its unit.

Quick one: inhibition at 90 min, 10 microM of COc1ccc2c3c([nH]c2c1)[C@H](C=C(C)C)N1C(=O)[C@@H]2CCCN2C(=O)[C@@H]1C3 ?
75
